Measured values drawn from ChEMBL document CHEMBL1133230 for this set.

- target-of-assay: UniProt P27487
- Sequence (P27487 whole entry): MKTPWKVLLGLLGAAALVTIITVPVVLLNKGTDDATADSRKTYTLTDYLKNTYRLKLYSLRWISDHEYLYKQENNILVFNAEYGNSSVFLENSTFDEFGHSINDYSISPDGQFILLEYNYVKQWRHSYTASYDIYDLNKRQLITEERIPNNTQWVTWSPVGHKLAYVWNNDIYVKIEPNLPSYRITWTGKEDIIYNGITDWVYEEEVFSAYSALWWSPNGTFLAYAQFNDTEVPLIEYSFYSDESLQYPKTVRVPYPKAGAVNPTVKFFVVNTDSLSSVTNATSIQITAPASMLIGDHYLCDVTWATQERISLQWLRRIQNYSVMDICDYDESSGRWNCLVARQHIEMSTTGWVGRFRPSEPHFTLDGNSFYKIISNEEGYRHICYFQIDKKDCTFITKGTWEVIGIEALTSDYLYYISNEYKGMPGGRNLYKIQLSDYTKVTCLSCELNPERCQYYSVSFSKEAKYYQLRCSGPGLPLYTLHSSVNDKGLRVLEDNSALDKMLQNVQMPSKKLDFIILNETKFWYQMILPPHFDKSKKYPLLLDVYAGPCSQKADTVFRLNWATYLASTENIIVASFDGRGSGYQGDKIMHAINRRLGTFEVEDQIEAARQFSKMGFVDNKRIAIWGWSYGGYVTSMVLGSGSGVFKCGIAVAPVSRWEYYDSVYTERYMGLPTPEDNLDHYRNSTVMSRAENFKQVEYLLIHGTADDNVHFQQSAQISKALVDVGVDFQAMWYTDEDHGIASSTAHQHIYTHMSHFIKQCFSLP
- test-details: In vitro inhibition of Dipeptidylpeptidase IV from Caco-2 (human colon carcinoma) cells.
- Assay type: cell-based
pIC50: −log10 of the molar value.
experimental-endpoint: pIC50

smiles-text	experimental-value
CCOC(=O)/C=C/c1cnc(CN)c2cc(OC)c(OC)cc12	4.74
CCOC(=O)c1cnc(CN)c2cc(OC)c(OC)c(OC)c12	4.74
CCOC(=O)c1cnc(CN)c2cc(OC)c(OC)cc12	5.47
CCOC(=O)c1cnc(CN)c2ccc(OC)cc12	3.68
CCOC(=O)c1cnc(CN)c2cc(OCC)c(OC)cc12	5.17
CCOC(=O)c1cnc(CCN)c2cc(OC)c(OC)cc12	3.13
CCOC(=O)c1cnc(CN)c2cc(O)c(OC)cc12	4.85
COc1cc2c(C(=O)O)cnc(CN)c2cc1OC	3.99
CCOC(=O)Cc1cnc(CN)c2cc(OC)c(OC)cc12	4.77
CCOC(=O)c1cnc(CN)c2c(OC)ccc(OC)c12	5.62
CCOC(=O)c1cnc(CNC)c2cc(OC)c(OC)cc12	3.14
COc1cc2c(C=O)cnc(CN)c2cc1OC	3.56
COc1cc2c(CO)cnc(CN)c2cc1OC	4.50
CCOC(=O)c1cnc(CN)c2c(OC)c(OC)c(OC)cc12	5.96
CCCOc1cc2c(CN)ncc(C(=O)OCC)c2cc1OC	5.08
CCOC(=O)Nc1cnc(CN)c2cc(OC)c(OC)cc12	5.64
CCOC(=O)c1cnc(CN)c2cc(OC)c(OCC)cc12	5.33
CCOC(=O)CCc1cnc(CN)c2cc(OC)c(OC)cc12	4.28
COc1cc2c(C(N)=O)cnc(CN)c2cc1OC	3.77
CCOC(=O)c1cnc(CN(C)C)c2cc(OC)c(OC)cc12	3.02
CCCNC(=O)c1cnc(CN)c2cc(OC)c(OC)cc12	4.29
